Measured values drawn from ChEMBL document CHEMBL2176880 for this set.

# protocol: Clearance in Sprague-Dawley rat at […], iv
# Type: ADME, organism-based
# Parameters: dose 2.5 mg/kg, route intravenous
# conditions: in vivo
readout-kind: clearance (L/h/kg)
Provide only the numeric value, understood in L/h/kg.

Entry FC(F)(F)C1(c2ccccc2)CCN(c2ccn3c(CC4CC4)nnc3c2Cl)CC1 : reported clearance = ? 4.62

Same read-out for CCc1nnc2c(C(F)(F)F)c(N3CCC(c4ccccc4)CC3)ccn12 ? 3.18

Same read-out for FC(F)(F)c1c(N2CCC(c3ccccc3)CC2)ccn2c(CC3CC3)nnc12 ? 2.1

----------
# test-target: Metabotropic glutamate receptor 2 (Homo sapiens)
# Sequence (Q14416 19-872 limits assumed): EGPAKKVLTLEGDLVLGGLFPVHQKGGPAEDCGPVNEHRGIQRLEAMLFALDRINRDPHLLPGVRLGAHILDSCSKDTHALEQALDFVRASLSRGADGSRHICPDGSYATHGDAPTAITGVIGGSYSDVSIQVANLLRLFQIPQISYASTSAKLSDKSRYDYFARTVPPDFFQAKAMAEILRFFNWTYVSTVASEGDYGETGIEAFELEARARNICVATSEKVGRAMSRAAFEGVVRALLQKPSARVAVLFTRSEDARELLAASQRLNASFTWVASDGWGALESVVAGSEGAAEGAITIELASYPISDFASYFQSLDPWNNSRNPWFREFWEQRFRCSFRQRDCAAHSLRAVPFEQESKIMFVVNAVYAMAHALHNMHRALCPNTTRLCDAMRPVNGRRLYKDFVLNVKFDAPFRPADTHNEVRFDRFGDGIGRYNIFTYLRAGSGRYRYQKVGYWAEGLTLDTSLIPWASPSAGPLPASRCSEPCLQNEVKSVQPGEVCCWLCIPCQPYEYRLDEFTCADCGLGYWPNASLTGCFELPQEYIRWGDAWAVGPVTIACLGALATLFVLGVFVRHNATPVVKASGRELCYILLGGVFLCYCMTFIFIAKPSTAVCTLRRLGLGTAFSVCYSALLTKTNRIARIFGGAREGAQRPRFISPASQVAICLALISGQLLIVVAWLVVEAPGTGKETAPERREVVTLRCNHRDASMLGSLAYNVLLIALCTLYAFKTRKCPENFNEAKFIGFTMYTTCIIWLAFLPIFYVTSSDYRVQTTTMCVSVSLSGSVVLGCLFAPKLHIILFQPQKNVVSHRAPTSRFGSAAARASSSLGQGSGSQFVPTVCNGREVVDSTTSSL
# protocol: Positive allosteric modulator activity at human mGlu2R expressed in CHO cells incubated for 30 mins by [35S]GTPgammaS binding assay relative to control
# Format: functional, cell-based
readout-kind: Emax (%)
Provide only the numeric value, understood in %.

Entry Fc1ccc(C2CCN(c3ccn4c(CC5CC5)nnc4c3C(F)(F)F)CC2)c(F)c1 : reported Emax = ? 306

Same read-out for FC(F)(F)Cc1nnc2c(Cl)c(N3CCC(F)(c4ccccc4)CC3)ccn12 ? 310

Same read-out for CCCCc1nnc2c(C(F)(F)F)c(N3CCC(c4ccccc4)CC3)ccn12 ? 364

----------
# protocol: Ratio of drug level in brain to plasma in Swiss mouse at 10 mg/kg, sc administered as single dose measured 1 hr post dose
# Type: ADME, organism-based
# Set-up: dose 10 mg/kg, route subcutaneous
# conditions: read-out: BPR
Please go through the items and note down their Kp at 1 h.
Answer using only a numeral; do not append any unit.

Entry FC(F)(F)C1(c2ccccc2)CCN(c2ccn3c(CC4CC4)nnc3c2Cl)CC1 : reported Kp at 1 h = ? 1.6

Same read-out for Clc1c(N2CCC(c3ccccc3)CC2)ccn2c(CC3CC3)nnc12 ? 1.4

Same read-out for CCc1nnc2c(C#N)c(N3CCC(c4ccccc4)CC3)ccn12 ? 0.2

----------
# protocol: Drug metabolism in mouse liver microsomes at 5 uM after 15 mins
# Format: ADME, Microsome
# conditions: read-out: Drug metabolism
Please go through the items and note down their metabolised at […], 5 µM.
Provide only the numeric value, understood in %.

Entry CCc1nnc2c(C(F)(F)F)c(N3CCC(c4ccccc4)CC3)ccn12 : reported metabolised at […], 5 µM = ? 42

Same read-out for CCCc1cnc2c(C#N)c(N3CCC(c4ccccc4)CC3)ccn12 ? 81

Same read-out for FC(F)(F)c1c(N2CCC(c3cccnc3)CC2)ccn2c(CC3CC3)nnc12 ? 78

Same read-out for N#Cc1c(N2CCC(c3ccccc3)CC2)ccn2c(CC3CC3)nnc12 ? 25

Same read-out for CCc1nnc2c(Cl)c(N3CCC(c4ccccc4)CC3)ccn12 ? 39

Same read-out for FC(F)(F)c1c(N2Cc3ccccc3C2)ccn2c(CC3CC3)nnc12 ? 89

Same read-out for N#Cc1c(N2CCC(c3ccccc3)CC2)ccn2c(CN3CCCC3)nnc12 ? 88

Same read-out for COCc1nnc2c(C#N)c(N3CCC(c4ccccc4)CC3)ccn12 ? 31

Same read-out for CCCc1nnc2c(C#N)c(N3CCC(c4ccccc4)CC3)ccn12 ? 40

Same read-out for FC(F)(F)c1c(N2CCC(c3ccccc3)C2)ccn2c(CC3CC3)nnc12 (racemic) ? 72

Same read-out for Clc1c(N2CCN(c3ccccc3)CC2)ccn2c(CC3CC3)nnc12 ? 53

Same read-out for FC(F)(F)c1c(N2CCc3ccccc3C2)ccn2c(CC3CC3)nnc12 ? 86

Same read-out for CCc1nnc2c(C#N)c(N3CCC(c4ccccc4)CC3)ccn12 ? 7

Same read-out for FC(F)(F)C1(c2ccccc2)CCN(c2ccn3c(CC4CC4)nnc3c2Cl)CC1 ? 41

Same read-out for FC(F)(F)c1c(N2CCC(F)(c3ccccc3)CC2)ccn2c(CC3CC3)nnc12 ? 13

Same read-out for N#Cc1c(N2CCC(c3ccccc3)CC2)ccn2c(CC(F)(F)F)nnc12 ? 10
